The measured values listed here are drawn from patent US20250270287A1.

# Target Under Test: T1, growth differentiation factor 8 (GDF-8) (UniProt O14793 267-375)
# T1 construct: also called myostatin
# T1 sequence (looked up): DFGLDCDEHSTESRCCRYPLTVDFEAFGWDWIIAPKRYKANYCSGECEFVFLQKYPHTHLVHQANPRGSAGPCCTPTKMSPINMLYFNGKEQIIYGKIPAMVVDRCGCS
# Method Summary: SPR (Biacore 8K), Fc protein captured on anti-human IgG, ligand injected
# Protocol: The Cytiva Biacore 8k was used to measure the kinetics of the interactions between the ActRII- and chimera-Fc proteins and Activin A/Activin B/growth differentiation factor 8 (GDF-8)/GDF-11/BMP-9/BMP-10. Series S CM4 Sensor Chips were immobilized with anti-human capture antibody using the reagents and protocol in the Biacore Human Antibody Capture Kit (GE Life Sciences). […] The data were analyzed using the Biacore Insight Evaluation Software.
Just a reminder that ties go to no: only Kd strictly below 0.07 nM counts as yes.

Study these solved cases before continuing.
ActRIIB-B3 (SEQ ID NO: 112) chimera-Fc protein (Fc fusion, Tested as chimera-Fc protein; not shown: linker (if any) and Fc domain) GRGEAETRECIYYNANWELERTNQSGLERCEGEQDKRRHCFATWKNISGTIELVKKGCWLDDFNCYDRQECVATEENPQVYFCCCEGNFCNERFTHLPEAGGPEVTYEPPPTAPT = yes
ActRIIB-B1B7 (SEQ ID NO: 116) chimera-Fc protein (Fc fusion, Tested as chimera-Fc protein; not shown: linker (if any) and Fc domain) GRGEAETRECLFFNANWELERTNQSGLERCEGEQDKRLHCYASWRNSSGTIELVKKGCWLDDFNCYDRQECVATEENPQVYFCCCEGNFCNEKFSYFPEAGGPEVTYEPPPTAPT = yes
ActRIIA-B1B4 (SEQ ID NO: 102) chimera-Fc protein (Fc fusion, Tested as chimera-Fc protein; also called ActRIIA-B1β4; not shown: linker (if any) and Fc domain) GAILGRSETQECIYYNANWEKDRTNQTGVEPCYGDKDKRRHCFATWKNISGTIELVKKGCWLDDINCYDRTDCVEKKDSPEVYFCCCEGNMCNEKFSYFPEMEVTQPTS = no
ActRIIB-B5 (SEQ ID NO: 114) chimera-Fc protein (Fc fusion, Tested as chimera-Fc protein; not shown: linker (if any) and Fc domain) GRGEAETRECIYYNANWELERTNQSGLERCEGEQDKRLHCYASWRNSSGTIELVKKGCWLDDFNCYDRQECVEKEENPQVYFCCCEGNFCNERFTHLPEAGGPEVTYEPPPTAPT = yes
ActRIIA-B3 (SEQ ID NO: 97) chimera-Fc protein (Fc fusion, Tested as chimera-Fc protein; not shown: linker (if any) and Fc domain) GAILGRSETQECLFFNANWEKDRTNQTGVEPCYGDKDKRLHCYASWRNSSGSIEIVKQGCWLDDINCYDRTDCVEKKDSPEVYFCCCEGNMCNEKFSYFPEMEVTQPTS = yes
ActRIIA-B1B7 (SEQ ID NO: 101) chimera-Fc protein (Fc fusion, Tested as chimera-Fc protein; also called ActRIIA-B1β7; not shown: linker (if any) and Fc domain) GAILGRSETQECIYYNANWEKDRTNQTGVEPCYGDKDKRRHCFATWKNISGSIEIVKQGCWLDDINCYDRTDCVEKKDSPEVYFCCCEGNMCNERFTHLPEMEVTQPTS = no

# input for lookup
INPUT: Would you kindly verify if Kd of ActRIIB-A3 (SEQ ID NO: 122) chimera-Fc protein (Fc fusion, Tested as chimera-Fc protein; not shown: linker (if any) and Fc domain) GRGEAETRECIYYNANWELERTNQSGLERCYGDKDKRLHCYASWRNSSGTIELVKKGCWLDDFNCYDRQECVATEENPQVYFCCCEGNFCNERFTHLPEAGGPEVTYEPPPTAPT is strictly less than 0.07 nM?
OUTPUT: yes
